Taken from patent US20030092739A1.

Below, each entry is listed alongside its reported pest or weed control at 96 µg/mL.
- Test system: aphids
- Assay Method Text: Biological Test On Aphid (spray on cabbage leaf in Petri dish)
- Assay type: in vivo
- Test Conditions: calculated from number of dead aphids; 20 aphids; 9.6% w/w reagent diluted 1000 times; 24 hours; four replicates; read-out: Kill ratio
Give just the number in %; leave the unit off.

The examples below pair each entry with its known result.
                                   compound  system_name  result_value
0  CSc1c(C)cc(OCc2ccc(Cl)nc2)cc1C [Example 12]       aphids          96.2
1  CC1(C)Cc2cccc(OCc3ccc(Cl)nc3)c2O1 [Example 14]       aphids          83.3
2  Clc1ccc(COc2cccc3ccccc23)cn1 [Example 13]       aphids          84.6
3  CC(C)Oc1ccccc1OCc1ccc(Cl)nc1 [Example 11]       aphids          88.5
4     CS/C(C)=N/OCc1ccc(Cl)nc1 [Example 10]       aphids          87.2

Turning now to a further compound:
Request: For the compound CNC(=O)Nc1nc2ccccc2n1Cc1csc(Cl)n1 [Example 16] , give its reported pest or weed control at 96 µg/mL.
Response: 83.3
